B1: NECAB1 (parent)
chain: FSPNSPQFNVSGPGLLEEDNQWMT

# Variants of: B1
# protocol.text: protein stability index of a GFP-peptide fusion (GPS, HEK-293T) (PSI 1-6); higher = more stable;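 further: lentivirally expressed fusions sorted by FACS into six bins by GFP to DsRed ratio, PSI derived from sequencing read proportions per bin multiplied by bin number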
# assay.context: c terminus: a fixed tail appended
Measured protein stability index accompanies every entry in the list below.
Answer with a bare number; do not write a unit.

Problem: I have this variant here, FSPNSPQFNVSGPQLLEEDNQWMT [G14Q] , and I need its recorded protein stability index.
Solution: 2.74

Problem: And then ESPNSPQFNVSGPGLLEEDNQWMT [F1E] , what is it?
Solution: 4.79

Problem: And then DSPNSPQFNVSGPGLLEEDNQWMT [F1D] , what is it?
Solution: 4.53

Problem: And then FSPNSPQFNVSGPGLLEHDNQWMT [E18H] , what is it?
Solution: 2.39
